assay: Cmax in rhesus monkey at 1 mg/kg, po and 0.5 mg/kg, iv; type: ADME, organism-based, Macaca mulatta; conditions: in vivo
Quantity name: Cmax (nM)
Give bare numbers, in nM.

State the recorded Cmax for this entry: "O=C(O)C1CN(Cc2ccc(OCc3cc(-c4ccccc4)c(C(F)(F)F)s3)cc2)C1"
1800

Now consider a different compound.
State the recorded Cmax for this entry: "Cc1cc(CN2CC(C(=O)O)C2)ccc1OCc1cc(-c2ccccc2)c(C(F)(F)F)s1"
1800

====

experiment: Half life in rat at 2 mg/kg, po and 1 mg/kg, iv; assay type: ADME, organism-based; details: in vivo
Quantity name: half-life (min)
Numbers only, in min.

State the recorded half-life for this entry: "O=C(O)C1CN(Cc2ccc(OCc3cc(-c4ccccc4)c(C(F)(F)F)s3)cc2)C1"
402

Provide half-life for all items below, preserving their order.
1. O=C(O)C1CN(Cc2ccc(-c3noc(-c4cc(-c5ccccc5)c(C(F)(F)F)s4)n3)cc2)C1
2. Cc1cc(CN2CC(C(=O)O)C2)ccc1OCc1cc(-c2ccccc2)c(C(F)(F)F)s1

1: 630; 2: 534

State the recorded half-life for this entry: "O=C(O)C1CN(Cc2ccc(OCc3cc(-c4ccccc4)c(C(F)(F)F)s3)c(Cl)c2)C1"
420

====

Molecular target: Sphingosine 1-phosphate receptor 4 (Homo sapiens, UniProt O95977)
Sequence (O95977 whole entry): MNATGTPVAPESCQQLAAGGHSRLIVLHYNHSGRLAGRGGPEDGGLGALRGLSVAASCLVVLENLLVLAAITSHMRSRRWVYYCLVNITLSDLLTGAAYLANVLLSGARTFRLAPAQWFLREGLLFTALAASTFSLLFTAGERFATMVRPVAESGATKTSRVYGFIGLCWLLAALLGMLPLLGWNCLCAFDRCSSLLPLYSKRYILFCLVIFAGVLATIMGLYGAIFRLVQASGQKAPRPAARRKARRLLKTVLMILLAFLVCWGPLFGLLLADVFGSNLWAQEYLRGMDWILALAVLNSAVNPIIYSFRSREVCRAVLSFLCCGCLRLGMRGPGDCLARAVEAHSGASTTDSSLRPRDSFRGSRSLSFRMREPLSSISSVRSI
Experiment: Displacement of [33P]sphingosine 1 phosphate from human S1P4 receptor expressed in CHO cells
Assay type: cell-based
Quantity name: IC50

The examples below pair each entry with its known result.
State the recorded IC50 for this entry: "FC(F)(F)c1cccc(-c2noc(-c3cc(-c4ccccc4)c(C(F)(F)F)s3)n2)c1"
> 10000 nM

State the recorded IC50 for this entry: O=C(O)C1CCN(Cc2ccc(OCc3cc(-c4ccccc4)c(C(F)(F)F)s3)cc2)C1 (configuration not stated)
790 nM (antagonist)

State the recorded IC50 for this entry: "CCCCCCCCCCCCC/C=C/[C@@H](O)[C@@H](N)COP(=O)(O)O"
34 nM (antagonist)

State the recorded IC50 for this entry: "COc1cc(CN2CC(C(=O)O)C2)ccc1OCc1cc(-c2ccccc2)c(C(F)(F)F)s1"
2800 nM (antagonist)

State the recorded IC50 for this entry: "CCCCCCCCOc1c(Br)cc(CNCCCP(=O)(O)O)cc1OC"
80 nM (antagonist)

Provide IC50 for all items below, preserving their order.
1. O=C(O)C1CN(Cc2ccc(OCc3cc(-c4ccccc4)c(C(F)(F)F)s3)c(F)c2)C1
2. CCCCCCCCCc1ccc(CN2CCC(P(=O)(O)O)C2)cc1 (configuration not stated)
3. O=C(O)C1CN(Cc2ccc(OCc3cc(-c4ccccc4)c(C(F)(F)F)s3)cc2)C1
4. Cc1cc(CN2CC(C(=O)O)C2)ccc1OCc1cc(-c2ccccc2)c(C(F)(F)F)s1
5. O=C(O)C1CN(Cc2ccc(OCc3cc(-c4ccccc4)c(C(F)(F)F)s3)c(Br)c2)C1

["2700 nM (antagonist)", "45 nM (antagonist)", "1600 nM (antagonist)", "1500 nM (antagonist)", "2400 nM (antagonist)"]

Provide IC50 for all items below, preserving their order.
1. CCCCCCCCCc1ccc(CN2CCC(C(=O)O)C2)cc1 (configuration not stated)
2. FC(F)(F)c1sc(-c2nc(-c3ccccc3)no2)cc1-c1ccccc1

["2500 nM (antagonist)", "> 10000 nM"]
